test_system: UniProt P00734
assay_comment: biochemical
protocol_conditions: TAME hydrolysis; read-out: ID50 Thrombin
pIC50: −log10 of the molar value.
experimental_endpoint: pIC50

INSERT INTO measurements (given_smiles, reported) VALUES
  ('CSCc1ccc(C(=O)Oc2ccc3cc(C(=N)N)ccc3c2)o1', 6.52),
  ('N=C(N)c1ccc2cc(OC(=O)c3ccoc3)ccc2c1', 6.15),
  ('N=C(N)c1ccc2cc(OC(=O)c3ccco3)ccc2c1', 6.40),
  ('N=C(N)c1ccc2cc(OC(=O)c3ccc(COCc4ccccc4)o3)ccc2c1', 6.40),
  ('N=C(N)Nc1ccc(CCc2ccc(C(=O)Oc3ccc4cc(C(=N)N)ccc4c3)o2)cc1', 6.30);

----------
Measured Inhibition of complement mediated hemolysis, listed per entry.
System: complement mediated hemolysis
assay_comment: inhibition of complement mediated hemolysis
Format: cell-based
protocol_conditions: 1 × 10^-7
Experimental: The complement mediated hemolysis is widely used as a means to determine the titration of complement. […] The anti-C1 esterase (C1r, C1s) activity was determined according to the method of Okamura et al. [K. Okamura, M. Muramatsu and B. Fujii, Biochem. Biophys. […] The inhibition of complement mediated hemolysis was determined according to the method of Baker et al. [B. R. Baker and E. H. Erickson, J. Med. Chem., 12, 408-414 (1969)]. […]
experimental_endpoint: Inhibition of complement mediated hemolysis (%)

INSERT INTO results (given_smiles, reported) VALUES
  ('N=C(N)c1ccc2cc(OC(=O)c3ccc(CO)o3)ccc2c1', 92),
  ('N=C(N)Nc1ccc(CCc2ccc(C(=O)Oc3ccc4cc(C(=N)N)ccc4c3)o2)cc1', 89),
  ('CSCc1ccc(C(=O)Oc2ccc3cc(C(=N)N)ccc3c2)o1', 88),
  ('Cc1ccc(C(=O)Oc2ccc3cc(C(=N)N)ccc3c2)s1', 91),
  ('COc1ccc2oc(C(=O)Oc3ccc4cc(C(=N)N)ccc4c3)cc2c1', 90);
